Catalogue of molecules with associated inhibition at 1 µM
target: UniProt:Q13164; assay: Kinase panel profiling at 1 µmol/L (MSA or IMAP), percentage inhibition; type: biochemical; conditions: kinase Erk5; 1 µmol/L single concentration; read-out: %-inhibition at 1 µmol/L, Erk5
Sequence (Q13164 whole entry): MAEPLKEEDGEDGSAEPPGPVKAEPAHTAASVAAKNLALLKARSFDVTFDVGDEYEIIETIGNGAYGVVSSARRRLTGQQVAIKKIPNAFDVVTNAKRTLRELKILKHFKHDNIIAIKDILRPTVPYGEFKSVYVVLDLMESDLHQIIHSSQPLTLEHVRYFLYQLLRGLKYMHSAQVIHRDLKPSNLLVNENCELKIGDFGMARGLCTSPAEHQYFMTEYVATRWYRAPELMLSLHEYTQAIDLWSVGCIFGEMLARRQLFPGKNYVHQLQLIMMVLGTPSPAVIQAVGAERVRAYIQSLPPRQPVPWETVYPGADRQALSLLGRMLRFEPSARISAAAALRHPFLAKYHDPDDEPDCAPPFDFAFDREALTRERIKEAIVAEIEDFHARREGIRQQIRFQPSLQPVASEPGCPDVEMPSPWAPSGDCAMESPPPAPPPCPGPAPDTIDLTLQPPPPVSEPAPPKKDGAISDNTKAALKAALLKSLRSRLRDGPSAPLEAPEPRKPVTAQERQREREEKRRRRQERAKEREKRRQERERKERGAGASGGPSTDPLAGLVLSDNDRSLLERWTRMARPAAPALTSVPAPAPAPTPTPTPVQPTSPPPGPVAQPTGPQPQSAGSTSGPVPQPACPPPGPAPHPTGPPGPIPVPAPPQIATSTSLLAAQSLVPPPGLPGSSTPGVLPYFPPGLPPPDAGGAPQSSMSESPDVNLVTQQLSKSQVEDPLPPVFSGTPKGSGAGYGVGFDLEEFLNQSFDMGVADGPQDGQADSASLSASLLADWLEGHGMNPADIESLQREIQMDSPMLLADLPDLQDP

>  <molecule>
CCN1CCN(c2ccc(Nc3cc(N(C)C(=O)Nc4c(Cl)c(OC)cc(OC)c4Cl)ncn3)cc2)CC1 [infigratinib]

>  <target.system>
UniProt:Q13164

>  <units.symbol>
%

>  <inhibition at 1 µM>
30

$$$$
>  <molecule>
O=C(Nc1cnn2ccc(N3CCC[C@@H]3c3cc(F)ccc3F)nc12)N1CC[C@H](O)C1 [larotrectinib]

>  <target.system>
UniProt:Q13164

>  <units.symbol>
%

>  <inhibition at 1 µM>
1.26

$$$$
>  <molecule>
COc1cc2ncnc(Nc3ccc(F)c(Cl)c3)c2cc1NC(=O)/C=C/CN1CCCCC1 [dacomitinib]

>  <target.system>
UniProt:Q13164

>  <units.symbol>
%

>  <inhibition at 1 µM>
0.172

$$$$
>  <molecule>
CCN1C(=O)N(c2c(F)c(OC)cc(OC)c2F)Cc2cnc3[nH]c(CN4CCOCC4)cc3c21 [pemigatinib]

>  <target.system>
UniProt:Q13164

>  <units.symbol>
%

>  <inhibition at 1 µM>
97

$$$$
>  <molecule>
Cn1cnc2c(F)c(Nc3ccc(Br)cc3Cl)c(C(=O)NOCCO)cc21 [selumetinib]

>  <target.system>
UniProt:Q13164

>  <units.symbol>
%

>  <inhibition at 1 µM>
2.36

$$$$
>  <molecule>
Cc1nc(NC(=O)N2CCC[C@H]2C(N)=O)sc1-c1ccnc(C(C)(C)C(F)(F)F)c1 [alpelisib]

>  <target.system>
UniProt:Q13164

>  <units.symbol>
%

>  <inhibition at 1 µM>
0.367

$$$$
>  <molecule>
C=CC(=O)N1CCC([C@@H]2CCNc3c(C(N)=O)c(-c4ccc(Oc5ccccc5)cc4)nn32)CC1 [zanubrutinib]

>  <target.system>
UniProt:Q13164

>  <units.symbol>
%

>  <inhibition at 1 µM>
3.76

$$$$
>  <molecule>
C[C@H]1Oc2cc(cnc2N)-c2c(nn(C)c2C#N)CN(C)C(=O)c2ccc(F)cc21 [lorlatinib]

>  <target.system>
UniProt:Q13164

>  <units.symbol>
%

>  <inhibition at 1 µM>
38

$$$$
>  <molecule>
Cc1cc(Nc2ncnc3ccc(NC4=NC(C)(C)CO4)cc23)ccc1Oc1ccn2ncnc2c1 [tucatinib]

>  <target.system>
UniProt:Q13164

>  <units.symbol>
%

>  <inhibition at 1 µM>
-1.07

$$$$
>  <molecule>
C[C@H](Nc1ncnc2nc[nH]c12)c1cc2cccc(Cl)c2c(=O)n1-c1ccccc1 [duvelisib]

>  <target.system>
UniProt:Q13164

>  <units.symbol>
%

>  <inhibition at 1 µM>
-0.634

$$$$
>  <molecule>
CN1CCN(c2ccc(C(=O)Nc3n[nH]c4ccc(Cc5cc(F)cc(F)c5)cc34)c(NC3CCOCC3)c2)CC1 [entrectinib]

>  <target.system>
UniProt:Q13164

>  <units.symbol>
%

>  <inhibition at 1 µM>
13

$$$$
>  <molecule>
COc1ccc(CN2C3CC2CN(c2ccc(-c4cc(OCC(C)(C)O)cn5ncc(C#N)c45)cn2)C3)cn1 [selpercatinib]

>  <target.system>
UniProt:Q13164

>  <units.symbol>
%

>  <inhibition at 1 µM>
4

$$$$
>  <molecule>
COC(=O)N[C@@H](C)CNc1nccc(-c2cn(C(C)C)nc2-c2cc(Cl)cc(NS(C)(=O)=O)c2F)n1 [encorafenib]

>  <target.system>
UniProt:Q13164

>  <units.symbol>
%

>  <inhibition at 1 µM>
9

$$$$
>  <molecule>
CCn1c(=O)c(-c2cc(NC(=O)Nc3ccccc3)c(F)cc2Br)cc2cnc(NC)cc21 [ripretinib]

>  <target.system>
UniProt:Q13164

>  <units.symbol>
%

>  <inhibition at 1 µM>
0.452

$$$$
>  <molecule>
CO[C@]1(C(=O)N[C@@H](C)c2ccc(-n3cc(F)cn3)nc2)CC[C@H](c2nc(C)cc(Nc3cc(C)[nH]n3)n2)CC1 [pralsetinib]

>  <target.system>
UniProt:Q13164

>  <units.symbol>
%

>  <inhibition at 1 µM>
0.775

$$$$
>  <molecule>
FC(F)(F)c1ccc(CNc2ccc(Cc3c[nH]c4ncc(Cl)cc34)cn2)cn1 [pexidartinib]

>  <target.system>
UniProt:Q13164

>  <units.symbol>
%

>  <inhibition at 1 µM>
10

$$$$

====

Catalogue of molecules with associated inhibition at 1 µM
target: panel of 255 wild-type kinases (Homo sapiens, UniProt Q9NRA0); experiment: Kinase panel profiling at 1 µmol/L (MSA or IMAP), percentage inhibition; assay type: biochemical; details: kinase SPHK2; 1 µmol/L single concentration; read-out: %-inhibition at 1 µmol/L, SPHK2
Sequence (Q9NRA0 whole entry): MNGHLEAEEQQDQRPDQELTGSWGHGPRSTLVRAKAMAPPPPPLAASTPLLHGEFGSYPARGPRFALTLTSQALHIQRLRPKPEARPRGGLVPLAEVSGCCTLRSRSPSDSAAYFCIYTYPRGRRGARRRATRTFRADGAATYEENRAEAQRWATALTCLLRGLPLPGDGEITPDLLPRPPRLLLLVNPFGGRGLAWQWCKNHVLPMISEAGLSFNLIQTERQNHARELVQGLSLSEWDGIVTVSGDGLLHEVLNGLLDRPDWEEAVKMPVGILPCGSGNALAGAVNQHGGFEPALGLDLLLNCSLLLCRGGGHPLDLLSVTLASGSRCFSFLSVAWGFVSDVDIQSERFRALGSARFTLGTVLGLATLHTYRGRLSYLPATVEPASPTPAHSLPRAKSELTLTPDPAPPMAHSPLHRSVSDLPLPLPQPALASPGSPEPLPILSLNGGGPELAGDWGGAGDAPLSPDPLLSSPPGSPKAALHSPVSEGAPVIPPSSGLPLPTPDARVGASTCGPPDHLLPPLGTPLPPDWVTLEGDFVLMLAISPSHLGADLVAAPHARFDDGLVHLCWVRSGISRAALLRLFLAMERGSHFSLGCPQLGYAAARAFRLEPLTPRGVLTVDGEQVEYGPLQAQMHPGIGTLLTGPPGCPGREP
test.readout: inhibition at 1 µM (%)

>  <smiles.text>
CO[C@]1(C(=O)N[C@@H](C)c2ccc(-n3cc(F)cn3)nc2)CC[C@H](c2nc(C)cc(Nc3cc(C)[nH]n3)n2)CC1

>  <units.symbol>
%

>  <observed.measurement>
-2.48

$$$$
>  <smiles.text>
CN1CCN(c2ccc(C(=O)Nc3n[nH]c4ccc(Cc5cc(F)cc(F)c5)cc34)c(NC3CCOCC3)c2)CC1

>  <units.symbol>
%

>  <observed.measurement>
20

$$$$
>  <smiles.text>
COc1cc2ncnc(Nc3ccc(F)c(Cl)c3)c2cc1NC(=O)/C=C/CN1CCCCC1

>  <units.symbol>
%

>  <observed.measurement>
7.54

$$$$
>  <smiles.text>
CCc1nc(C(N)=O)c(Nc2ccc(N3CCC(N4CCN(C)CC4)CC3)c(OC)c2)nc1NC1CCOCC1

>  <units.symbol>
%

>  <observed.measurement>
9

$$$$

====

test system: 134 cancer cell lines; test: Cell viability assay (ATPlite, 72 hours), IC50 on cancer cell line panel; conditions: Homo sapiens, SW948, read-out: IC50 in cell proliferation assay, cell line SW948
pIC50: −log10 of the molar value.

>  <compound>
Cc1cc(Nc2ncnc3ccc(NC4=NC(C)(C)CO4)cc23)ccc1Oc1ccn2ncnc2c1 [tucatinib]

>  <reported.relation>
<

>  <pIC50>
4.50

$$$$
>  <compound>
Cn1cnc2c(F)c(Nc3ccc(Br)cc3F)c(C(=O)NOCCO)cc21 [binimetinib]

>  <reported.relation>
=

>  <pIC50>
7.09

$$$$

====

tested on: 134 cancer cell lines; experiment: Cell viability assay (ATPlite, 72 hours), IC50 on cancer cell line panel; details: Homo sapiens, PFSK-1, read-out: IC50 in cell proliferation assay, cell line PFSK-1
pIC50: −log10 of the molar value.
Catalogue of compounds with associated pIC50

>  <smiles.text>
Cn1cnc2c(F)c(Nc3ccc(Br)cc3F)c(C(=O)NOCCO)cc21

>  <reported.relation>
<

>  <pIC50>
4.50

$$$$
>  <smiles.text>
Cc1nc(NC(=O)N2CCC[C@H]2C(N)=O)sc1-c1ccnc(C(C)(C)C(F)(F)F)c1

>  <reported.relation>
=

>  <pIC50>
6.28

$$$$
>  <smiles.text>
COC(=O)N[C@@H](C)CNc1nccc(-c2cn(C(C)C)nc2-c2cc(Cl)cc(NS(C)(=O)=O)c2F)n1

>  <reported.relation>
=

>  <pIC50>
6.00

$$$$

====

target: panel of 255 wild-type kinases (Homo sapiens, UniProt Q9Y6M4); test: Kinase panel profiling at 1 µmol/L (MSA or IMAP), percentage inhibition; format: biochemical; conditions: kinase CK1γ3; 1 µmol/L single concentration; read-out: %-inhibition at 1 µmol/L, CK1γ3
Sequence (Q9Y6M4 whole entry): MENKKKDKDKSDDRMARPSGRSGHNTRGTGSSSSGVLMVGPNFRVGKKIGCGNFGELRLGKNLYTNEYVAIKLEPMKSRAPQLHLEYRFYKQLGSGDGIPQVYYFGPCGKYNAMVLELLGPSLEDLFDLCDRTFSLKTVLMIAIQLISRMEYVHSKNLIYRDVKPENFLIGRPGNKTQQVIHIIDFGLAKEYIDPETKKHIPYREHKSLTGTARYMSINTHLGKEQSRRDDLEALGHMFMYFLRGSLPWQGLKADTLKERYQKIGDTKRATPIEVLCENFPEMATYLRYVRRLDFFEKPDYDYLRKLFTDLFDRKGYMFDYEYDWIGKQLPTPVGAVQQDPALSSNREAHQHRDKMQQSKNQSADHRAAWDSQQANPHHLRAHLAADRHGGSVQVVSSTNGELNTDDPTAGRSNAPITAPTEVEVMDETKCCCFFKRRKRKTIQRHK
Catalogue of compounds with associated inhibition at 1 µM

>  <compound>
CCN1CCN(c2ccc(Nc3cc(N(C)C(=O)Nc4c(Cl)c(OC)cc(OC)c4Cl)ncn3)cc2)CC1 [infigratinib]

>  <inhibition at 1 µM [%]>
-1.16

$$$$
>  <compound>
Cc1nc(NC(=O)N2CCC[C@H]2C(N)=O)sc1-c1ccnc(C(C)(C)C(F)(F)F)c1 [alpelisib]

>  <inhibition at 1 µM [%]>
-2

$$$$
>  <compound>
Cn1cnc2c(F)c(Nc3ccc(Br)cc3F)c(C(=O)NOCCO)cc21 [binimetinib]

>  <inhibition at 1 µM [%]>
2.67

$$$$
>  <compound>
C=CC(=O)N1CCC([C@@H]2CCNc3c(C(N)=O)c(-c4ccc(Oc5ccccc5)cc4)nn32)CC1 [zanubrutinib]

>  <inhibition at 1 µM [%]>
-0.464

$$$$
>  <compound>
COc1cc2ncnc(Nc3ccc(F)c(Cl)c3)c2cc1NC(=O)/C=C/CN1CCCCC1 [dacomitinib]

>  <inhibition at 1 µM [%]>
-23

$$$$
>  <compound>
CN1CCN(c2ccc(C(=O)Nc3n[nH]c4ccc(Cc5cc(F)cc(F)c5)cc34)c(NC3CCOCC3)c2)CC1 [entrectinib]

>  <inhibition at 1 µM [%]>
0.879

$$$$
>  <compound>
C[C@H]1Oc2cc(cnc2N)-c2c(nn(C)c2C#N)CN(C)C(=O)c2ccc(F)cc21 [lorlatinib]

>  <inhibition at 1 µM [%]>
-1

$$$$
>  <compound>
CCn1c(=O)c(-c2cc(NC(=O)Nc3ccccc3)c(F)cc2Br)cc2cnc(NC)cc21 [ripretinib]

>  <inhibition at 1 µM [%]>
-8

$$$$
>  <compound>
Cc1cc(Nc2ncnc3ccc(NC4=NC(C)(C)CO4)cc23)ccc1Oc1ccn2ncnc2c1 [tucatinib]

>  <inhibition at 1 µM [%]>
11

$$$$
>  <compound>
CCc1nc(C(N)=O)c(Nc2ccc(N3CCC(N4CCN(C)CC4)CC3)c(OC)c2)nc1NC1CCOCC1 [gilteritinib]

>  <inhibition at 1 µM [%]>
11

$$$$
>  <compound>
CCN1C(=O)N(c2c(F)c(OC)cc(OC)c2F)Cc2cnc3[nH]c(CN4CCOCC4)cc3c21 [pemigatinib]

>  <inhibition at 1 µM [%]>
-1.18

$$$$
>  <compound>
Cn1cc(-c2cc3c(N4CCN(c5ncc([C@@](C)(N)c6ccc(F)cc6)cn5)CC4)ncnn3c2)cn1 [avapritinib]

>  <inhibition at 1 µM [%]>
10

$$$$
>  <compound>
C[C@H](Nc1ncnc2nc[nH]c12)c1cc2cccc(Cl)c2c(=O)n1-c1ccccc1 [duvelisib]

>  <inhibition at 1 µM [%]>
-0.689

$$$$
>  <compound>
COC(=O)N[C@@H](C)CNc1nccc(-c2cn(C(C)C)nc2-c2cc(Cl)cc(NS(C)(=O)=O)c2F)n1 [encorafenib]

>  <inhibition at 1 µM [%]>
10

$$$$
>  <compound>
Cn1cnc2c(F)c(Nc3ccc(Br)cc3Cl)c(C(=O)NOCCO)cc21 [selumetinib]

>  <inhibition at 1 µM [%]>
-1

$$$$

From: paper PMC9516332
